Readings of Activity for the listed compounds
PROTOCOL_SUMMARY: Reducing power of the compound assessed as reducing Fe3+ power at 80 uM using K3Fe(CN)6 in pH 6.6 phosphate buffer relative to control
Where a SMILES comes first, the peptide text is derived from it.
VALUE_TYPE: Activity

[[record]]
compound = "CC[C@H](C)[C@H](NC(=O)[C@H](CS)NC(=O)[C@H](C)NC(=O)[C@@H](NC(=O)[C@H](CCCNC(=N)N)NC(=O)[C@H](C)NC(=O)[C@@H](NC(=O)[C@H](CC(N)=O)NC(=O)[C@@H](NC(=O)[C@H](CCSC)NC(=O)[C@H](Cc1c[nH]c2ccccc12)NC(=O)[C@H](Cc1cnc[nH]1)NC(=O)[C@@H](NC(=O)[C@@H](N)CS)C(C)C)[C@@H](C)O)[C@@H](C)O)[C@@H](C)O)C(=O)N[C@@H](C)C(=O)N1CCC[C@H]1C(=O)O (H-CVHWMTNTARTACIAP-OH)"
reported_measurement = 0.34

[[record]]
compound = "CC(C)[C@H](N)C(=O)N[C@H](C(=O)N[C@@H](CCCCN)C(=O)N[C@@H](CS)C(=O)N[C@@H](CO)C(=O)N[C@@H](Cc1ccccc1)C(=O)N[C@@H](CCCNC(=N)N)C(=O)N1CCC[C@H]1C(=O)NCC(=O)N[C@@H](CO)C(=O)N1CCC[C@H]1C(=O)N[C@@H](C)C(=O)N1CCC[C@H]1C(=O)N[C@@H](CCCNC(=N)N)C(=O)N[C@@H](CS)C(=O)N[C@@H](CCCCN)C(=O)O)C(C)C (H-VVKCSFRPGSPAPRCK-OH)"
reported_measurement = 0.18

[[record]]
compound = "C[C@@H](O)[C@H](NC(=O)[C@H](CO)NC(=O)[C@H](Cc1ccccc1)NC(=O)[C@@H](N)Cc1ccccc1)C(=O)N[C@@H](CO)C(=O)N[C@@H](CS)C(=O)N[C@@H](CCCNC(=N)N)C(=O)N[C@@H](CO)C(=O)NCC(=O)N[C@@H](CS)C(=O)O (H-FFSTSCRSGC-OH)"
reported_measurement = 0.21

[[record]]
compound = "CC[C@H](C)[C@H](NC(=O)[C@H](C)NC(=O)[C@@H]1CCCN1C(=O)[C@@H](NC(=O)[C@@H](N)Cc1ccccc1)C(C)C)C(=O)N[C@@H](CC(C)C)C(=O)N[C@@H](CS)C(=O)N[C@@H](CO)C(=O)N[C@H](C(=O)N[C@@H](CC(C)C)C(=O)N[C@@H](CCCCN)C(=O)N[C@H](C(=O)N[C@@H](CS)C(=O)O)[C@@H](C)O)[C@@H](C)CC (H-FVPAILCSILKTC-OH)"
reported_measurement = 0.23

[[record]]
compound = "CC(C)[C@H](NC(=O)[C@H](CO)NC(=O)[C@H](CCCNC(=N)N)NC(=O)[C@H](CS)NC(=O)[C@H](CO)NC(=O)[C@@H](NC(=O)[C@H](CCCNC(=N)N)NC(=O)[C@H](Cc1ccccc1)NC(=O)[C@@H](N)Cc1ccccc1)[C@@H](C)O)C(=O)N[C@@H](CS)C(=O)O (H-FFRTSCRSVC-OH)"
reported_measurement = 0.28

[[record]]
compound = "CC(C)[C@H](NC(=O)[C@H](CCCNC(=N)N)NC(=O)[C@H](Cc1ccccc1)NC(=O)[C@H](CS)NC(=O)[C@H](CCCNC(=N)N)NC(=O)[C@H](CO)NC(=O)[C@@H](N)[C@@H](C)O)C(=O)N[C@@H](CS)C(=O)O (H-TSRCFRVC-OH)"
reported_measurement = 0.24

[[record]]
compound = "OC[C@H]1O[C@@H](Oc2ccc(O)cc2)[C@H](O)[C@@H](O)[C@@H]1O [ARBUTIN]"
reported_measurement = 0.12

[[record]]
compound = "C[C@H](NC(=O)[C@H](CO)NC(=O)[C@H](CS)NC(=O)[C@H](CO)NC(=O)[C@@H](NC(=O)[C@H](CCCNC(=N)N)NC(=O)[C@@H](N)Cc1ccccc1)[C@@H](C)O)C(=O)N[C@@H](CS)C(=O)O (H-FRTSCSAC-OH)"
reported_measurement = 0.23

[[record]]
compound = "CC(C)[C@H](NC(=O)[C@H](CCCNC(=N)N)NC(=O)[C@H](Cc1ccccc1)NC(=O)[C@H](CS)NC(=O)[C@H](CCCNC(=N)N)NC(=O)[C@@H](N)[C@@H](C)O)C(=O)N[C@@H](CS)C(=O)N[C@@H](CO)C(=O)O (H-TRCFRVCS-OH)"
reported_measurement = 0.31

[[record]]
compound = "CC[C@H](C)[C@H](NC(=O)[C@H](CS)NC(=O)[C@@H](NC(=O)[C@@H](NC(=O)[C@H](CCCNC(=N)N)NC(=O)[C@H](C)NC(=O)[C@@H](NC(=O)[C@H](CC(N)=O)NC(=O)[C@@H](NC(=O)[C@H](CCCNC(=N)N)NC(=O)[C@H](Cc1ccccc1)NC(=O)[C@H](CCCNC(=N)N)NC(=O)[C@@H](NC(=O)[C@@H](N)CS)C(C)C)[C@@H](C)O)[C@@H](C)O)[C@@H](C)O)C(C)C)C(=O)N[C@@H](C)C(=O)N1CCC[C@H]1C(=O)O (H-CVRFRTNTARTVCIAP-OH)"
reported_measurement = 0.18

[[record]]
compound = "CC(C)[C@H](NC(=O)[C@H](CO)NC(=O)[C@H](CCCNC(=N)N)NC(=O)[C@H](CS)NC(=O)[C@@H](NC(=O)[C@H](CCCNC(=N)N)NC(=O)[C@@H](N)Cc1ccccc1)[C@@H](C)O)C(=O)N[C@@H](CS)C(=O)O (H-FRTCRSVC-OH)"
reported_measurement = 0.25

[[record]]
compound = "CC[C@H](C)[C@H](NC(=O)[C@H](CS)NC(=O)[C@H](CCCNC(=N)N)NC(=O)[C@H](CO)NC(=O)[C@@H](N)[C@@H](C)O)C(=O)N[C@@H](Cc1ccccc1)C(=O)N[C@@H](Cc1ccc(O)cc1)C(=O)N[C@@H](CCCNC(=N)N)C(=O)N[C@@H](CCCNC(=N)N)C(=O)N[C@@H](CS)C(=O)N[C@H](C(=O)N[C@@H](CS)C(=O)N[C@@H](CO)C(=O)O)C(C)C (H-TSRCIFYRRCVCS-OH)"
reported_measurement = 0.24

[[record]]
compound = "CC(C)[C@H](NC(=O)[C@H](CCCNC(=N)N)NC(=O)[C@H](CS)NC(=O)[C@H](CO)NC(=O)[C@H](CCCNC(=N)N)NC(=O)[C@H](Cc1ccccc1)NC(=O)[C@@H](N)Cc1ccccc1)C(=O)N[C@@H](CS)C(=O)O (H-FFRSCRVC-OH)"
reported_measurement = 0.19

[[record]]
compound = "CC[C@H](C)[C@H](NC(=O)[C@H](CS)NC(=O)[C@H](CCCNC(=N)N)NC(=O)[C@H](CO)NC(=O)[C@@H](N)[C@@H](C)O)C(=O)N[C@@H](Cc1ccccc1)C(=O)N[C@@H](Cc1ccc(O)cc1)C(=O)N[C@@H](CCCNC(=N)N)C(=O)N[C@@H](CCCNC(=N)N)C(=O)N[C@@H](CCCCN)C(=O)N[C@@H](CCCCN)C(=O)N[C@@H](CS)C(=O)N[C@@H](CO)C(=O)O (H-TSRCIFYRRKKCS-OH)"
reported_measurement = 0.21

